Reported Kd is given for each of the following binders.
Target: T1, HOIP extended PUB domain (aa 1–184) (UniProt Q96EP0 1-184)
T1 chain: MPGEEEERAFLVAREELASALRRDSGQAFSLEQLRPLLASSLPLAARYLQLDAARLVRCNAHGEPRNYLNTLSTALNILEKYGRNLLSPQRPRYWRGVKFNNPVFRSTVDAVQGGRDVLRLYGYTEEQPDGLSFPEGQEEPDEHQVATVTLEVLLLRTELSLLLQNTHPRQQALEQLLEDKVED
Assay: FP
No end group written: not given here. *: point of attachment. FITC = O=C1OC2(c3ccc(O)cc3Oc3cc(O)ccc32)c2ccc(NC(=S)*)cc21; Ahx = NCCCCCC(=O)O
experimental-readout: Kd (µM)

INSERT INTO measurements (binder, test_value) VALUES
  ('AEHEEDMFRAADEIEKEKE (not fully specified (N-terminus)) [fluorescently labeled OTULIN peptide (aa 49–67) Y56F]', 64.5),
  ('{FITC-Ahx}-AEHEEAMYRAADEIEKEKE [fluorescently labeled OTULIN peptide (aa 49–67) D54A]', 11.2),
  ('{FITC-Ahx}-AEHEEDMWRAADEIEKEKE [fluorescently labeled OTULIN peptide (aa 49–67) Y56W]', 21.3);

Reference source for all entries: paper PMC4017264
